target: human CD3 (human, UniProt P07766 23-207; P04234 22-171; P09693 23-182); assay: cell-based or functional assay
Sequence (P07766 23-207, chain 1 of 3): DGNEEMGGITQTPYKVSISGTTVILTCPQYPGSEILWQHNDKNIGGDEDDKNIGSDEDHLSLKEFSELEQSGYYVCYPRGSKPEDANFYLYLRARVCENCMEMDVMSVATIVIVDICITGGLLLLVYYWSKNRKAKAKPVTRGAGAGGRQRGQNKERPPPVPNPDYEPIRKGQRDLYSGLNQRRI
Sequence (P04234 22-171, chain 2 of 3): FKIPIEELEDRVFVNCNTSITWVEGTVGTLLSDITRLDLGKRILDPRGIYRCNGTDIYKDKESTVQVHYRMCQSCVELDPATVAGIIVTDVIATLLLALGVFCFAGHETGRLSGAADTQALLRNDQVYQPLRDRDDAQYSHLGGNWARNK
Sequence (P09693 23-182, chain 3 of 3): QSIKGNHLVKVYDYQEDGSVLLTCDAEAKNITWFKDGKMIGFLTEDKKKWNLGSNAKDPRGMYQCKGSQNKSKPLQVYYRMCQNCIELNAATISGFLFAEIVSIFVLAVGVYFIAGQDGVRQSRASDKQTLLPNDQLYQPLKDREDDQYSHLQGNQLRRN
// reported CD8 EC50 (nM); CD69/CD25 on human T cells, plate-coated antibody per item
Expressed in nM, but write only the number.

Here's what some known entries look like.
INSERT INTO measurements (binder, endpoint_result) VALUES
  ('mAb 66 (antibody, V domains shown) VH: QVQLVQSGAEVKKPGASVKVSCKASGYTVTGYYMHWVRQAPGQGLEWMGWINPNSGGTNFAQNFQGRVTMTRDTSISTFYMDLSRLRSDDTAVYYCARGGAPVSYWFFDLWGRGTLVTVSS VL: DIQMTQSPSSLSASVGDRVTITCRASQSISRYLNWYQQKPGKAPKVLIYNTSSLKSGVPSRFSGSGSGTDFTLTISSLQPEDFATLYCQQSHSTPFTFGPGTKVDIK', 13.2),
  ('mAb 155 (antibody, V domains shown) VH: EVQLVESGGGLVKTGGSLRLSCVASGFSFKKAWMNWVRQAPGKGLEWVGRIKRNTDGGTADYAAPVKGRFTLSRDDSKKTLFLQMNSLKTEDTAVYYCTTLDSSSYYVGYYYMDVWGKGTTVTVSS VL: DIQMTQSPSSVSASVGDRVIITCRASQDINNWLAWYQQKPGKAPKLLIYTASSLQSGVPSRFSGSGSGTDFTLTIGSLQPEDFATYYCQQAHSLPISFGQGTRLDIK', 6.29),
  ('mAb 120 (antibody, V domains shown) VH: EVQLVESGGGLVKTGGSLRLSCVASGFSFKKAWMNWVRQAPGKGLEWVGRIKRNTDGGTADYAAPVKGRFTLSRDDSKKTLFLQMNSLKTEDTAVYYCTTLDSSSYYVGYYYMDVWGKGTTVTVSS VL: DIQMTQSPSSVSASVGDRVTITCRASQDINNWLAWYQQKPGKAPKLLIYTASSLQSGVPSRFSGSGSGTDFTLTIGSLQPEDFATYYCQQAHSLPITFGQGTRLEIK', 6.46),
  ('mAb 167 (antibody, V domains shown) VH: EVHLVESGGGLVQPGRSLRLSCAASGFTFDDYAMHWVRQAPGKGLEWVSGISWNSGTIGYADSVKGRFTISRDNAKNSLYLEMNSLRAEDTALYYCAKDSSGYGHYYHYYIDVWGTGTTVTVSS VL: EIVMTQSPATLSVSPGGRATLSCRASQSVGSNLAWYQQKPGQAPRLLIYDASTRATGIPARFRGSGSGTEFTLTISGLQSEDFAVYYCQLYYNWPHFGQGTRLEIK', 6.36);

Here is the next item to consider.
Task item: Please look up its CD8 EC50 (nM); CD69/CD25 on human T cells, plate-coated antibody: mAb 44 (antibody, V domains shown) VH: QAQLVQSGSELKKPGASVKVSCKASGYTFTRHAMNWVRQAPGQGLEWMGWINTNTGNPTYAQGFTGRFVFSLDTSVSTAYLKISSLKAEDTAVYYCVREGDYDFWSGFFNFDYWGQGTLVTVSS VL: DIQMTQSPSSLSASVGDRVTITCRASQGIRNDLGWFQQKPGKAPTRLIYAASSLQSGVPSRFSGSGSGAEFTLTISSLQPEDFATYYCLQHNSYPRTFGQGTKVEIK
Reply: 20.9
